target: PRMT1 C109 (Q99873) (Homo sapiens); assay: Competitive isoTOP-ABPP, cell lysates; format: binding; settings: 500 μm, in-vitro_ramos_231
Sequence (Q99873 whole entry): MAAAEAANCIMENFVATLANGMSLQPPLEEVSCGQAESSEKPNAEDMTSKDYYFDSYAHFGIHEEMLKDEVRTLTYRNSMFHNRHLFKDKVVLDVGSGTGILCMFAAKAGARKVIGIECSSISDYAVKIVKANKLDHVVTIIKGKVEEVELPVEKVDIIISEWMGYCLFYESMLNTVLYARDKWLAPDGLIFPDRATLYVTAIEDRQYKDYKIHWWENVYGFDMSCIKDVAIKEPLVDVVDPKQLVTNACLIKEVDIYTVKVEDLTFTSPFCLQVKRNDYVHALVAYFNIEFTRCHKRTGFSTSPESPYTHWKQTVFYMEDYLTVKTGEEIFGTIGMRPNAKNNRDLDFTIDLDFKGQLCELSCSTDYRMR
compounds and their reported isoTOP-ABPP reactivity ratio, Q99873_C109
Keep it simple and answer with nothing but the number.

See these solved cases before continuing.
| COMPOUND | TESTED SYSTEM | RECORDED VALUE |
| --- | --- | --- |
| C=CC(=O)N(Cc1cccnc1)c1cc(C(F)(F)F)cc(C(F)(F)F)c1 | PRMT1 C109 (Q99873) (Homo sapiens) | 1.0 |
| O=C(CCl)Nc1ccccc1C1CCCCCC1 | PRMT1 C109 (Q99873) (Homo sapiens) | 0.8 |
| CC(C)(C)c1cc(NC(=O)CCl)on1 | PRMT1 C109 (Q99873) (Homo sapiens) | 1.7 |

[Q] Which isoTOP-ABPP reactivity ratio, Q99873_C109 is listed for COC(=O)C1Cc2ccccc2CN1C(=O)CCl (stereo not drawn) ?
[A] 1.5

* * *

target: MLTK C22 (Q9NYL2) (Homo sapiens, UniProt Q9NYL2); test: Competitive isoTOP-ABPP, cell lysates; type: binding; details: 500 μm, in-vitro_ramos_231
Sequence (Q9NYL2 whole entry): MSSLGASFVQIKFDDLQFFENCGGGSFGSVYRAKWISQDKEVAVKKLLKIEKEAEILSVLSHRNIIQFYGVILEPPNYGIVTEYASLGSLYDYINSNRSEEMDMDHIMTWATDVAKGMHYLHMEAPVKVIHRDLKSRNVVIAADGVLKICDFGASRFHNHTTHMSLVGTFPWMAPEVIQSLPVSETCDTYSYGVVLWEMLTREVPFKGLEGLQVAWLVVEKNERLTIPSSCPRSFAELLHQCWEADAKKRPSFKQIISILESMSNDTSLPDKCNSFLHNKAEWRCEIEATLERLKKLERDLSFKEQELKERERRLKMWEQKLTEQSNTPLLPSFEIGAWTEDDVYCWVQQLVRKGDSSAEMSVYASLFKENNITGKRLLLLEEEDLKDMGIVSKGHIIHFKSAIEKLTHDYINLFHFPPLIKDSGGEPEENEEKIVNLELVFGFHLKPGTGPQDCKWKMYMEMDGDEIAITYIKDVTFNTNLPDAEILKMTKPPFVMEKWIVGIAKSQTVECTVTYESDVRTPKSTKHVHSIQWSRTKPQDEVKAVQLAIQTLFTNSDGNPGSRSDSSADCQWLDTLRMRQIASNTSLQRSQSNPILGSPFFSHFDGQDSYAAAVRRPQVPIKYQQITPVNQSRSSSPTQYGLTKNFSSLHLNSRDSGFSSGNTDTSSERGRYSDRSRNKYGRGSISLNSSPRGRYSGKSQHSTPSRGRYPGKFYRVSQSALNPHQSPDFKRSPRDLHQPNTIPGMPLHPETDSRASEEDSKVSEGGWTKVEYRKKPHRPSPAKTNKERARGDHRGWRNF
compounds and their reported isoTOP-ABPP reactivity profile ratio, Q9NYL2_C22
Keep it simple and answer with nothing but the number.

See these solved cases before continuing.
| COMPOUND | RECORDED VALUE |
| --- | --- |
| CCCN(C(=O)CCl)c1c(N)n(CCC)c(=O)[nH]c1=O [compound 55] | 1.2 |
| CC1CCc2ccccc2N1C(=O)CCl (centres unmarked) [compound 45] | 20.0 |
| COc1cc(NC(=O)CCl)cc(OC)c1 [compound 43] | 2.9 |
| Cc1ncc(CO)c(CNC(=O)CCl)c1O [compound 54] | 1.1 |

[Q] Item O=C(CCl)NC1C(O)OC(CO)C(O)C1O (mixture of isomers) [compound 44] with MLTK C22 (Q9NYL2) (Homo sapiens, UniProt Q9NYL2) - isoTOP-ABPP reactivity profile ratio, Q9NYL2_C22?
[A] 0.8

* * *

compounds and their reported isoTOP-ABPP ratio (reactivity profile), Q8TAQ2_C145
target: UniProt Q8TAQ2; experiment: Competitive isoTOP-ABPP, cell lysates; assay type: binding; details: 500 μm in-vitro ramos
Sequence (Q8TAQ2 whole entry): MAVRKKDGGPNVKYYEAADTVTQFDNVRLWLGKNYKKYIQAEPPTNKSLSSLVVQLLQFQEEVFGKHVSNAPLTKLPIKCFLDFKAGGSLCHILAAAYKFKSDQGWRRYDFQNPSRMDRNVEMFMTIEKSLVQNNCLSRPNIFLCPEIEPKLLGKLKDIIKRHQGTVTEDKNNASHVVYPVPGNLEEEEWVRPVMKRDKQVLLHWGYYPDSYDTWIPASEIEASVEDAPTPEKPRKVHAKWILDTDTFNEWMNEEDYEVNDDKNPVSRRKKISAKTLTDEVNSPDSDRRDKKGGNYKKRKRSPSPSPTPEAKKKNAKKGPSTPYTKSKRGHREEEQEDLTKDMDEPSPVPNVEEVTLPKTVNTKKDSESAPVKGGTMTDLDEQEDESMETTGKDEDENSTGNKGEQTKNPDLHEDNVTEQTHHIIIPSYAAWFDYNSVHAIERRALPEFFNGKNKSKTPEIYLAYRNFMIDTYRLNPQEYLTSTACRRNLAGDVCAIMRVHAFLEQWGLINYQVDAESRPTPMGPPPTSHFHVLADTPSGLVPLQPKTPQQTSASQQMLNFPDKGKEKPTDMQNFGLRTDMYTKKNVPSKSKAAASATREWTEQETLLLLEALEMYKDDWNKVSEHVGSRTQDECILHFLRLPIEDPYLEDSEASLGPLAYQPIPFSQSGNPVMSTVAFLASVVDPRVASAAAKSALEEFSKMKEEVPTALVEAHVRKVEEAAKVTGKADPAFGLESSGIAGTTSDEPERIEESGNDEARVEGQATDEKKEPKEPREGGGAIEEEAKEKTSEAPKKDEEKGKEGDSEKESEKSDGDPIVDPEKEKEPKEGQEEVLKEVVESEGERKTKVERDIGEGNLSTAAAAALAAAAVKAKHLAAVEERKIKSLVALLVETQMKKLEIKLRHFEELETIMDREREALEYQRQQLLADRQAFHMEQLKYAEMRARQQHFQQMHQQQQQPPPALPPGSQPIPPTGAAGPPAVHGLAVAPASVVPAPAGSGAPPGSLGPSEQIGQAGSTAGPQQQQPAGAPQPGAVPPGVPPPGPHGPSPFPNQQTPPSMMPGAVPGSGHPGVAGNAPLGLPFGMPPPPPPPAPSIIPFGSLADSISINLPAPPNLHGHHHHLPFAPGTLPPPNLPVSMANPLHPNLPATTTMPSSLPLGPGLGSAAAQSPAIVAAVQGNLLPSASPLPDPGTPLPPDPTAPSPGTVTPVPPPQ

[Q] Which isoTOP-ABPP ratio (reactivity profile), Q8TAQ2_C145 is listed for `O=C(/C=C/c1ccccc1)Nc1cc(C(F)(F)F)cc(C(F)(F)F)c1` ?
[A] 0.9

* * *

target: XPO1 C528 (O14980) (Homo sapiens); assay: Competitive isoTOP-ABPP, cell lysates; assay type: binding; details: 500 μm, in-vitro_ramos
Sequence (O14980 whole entry): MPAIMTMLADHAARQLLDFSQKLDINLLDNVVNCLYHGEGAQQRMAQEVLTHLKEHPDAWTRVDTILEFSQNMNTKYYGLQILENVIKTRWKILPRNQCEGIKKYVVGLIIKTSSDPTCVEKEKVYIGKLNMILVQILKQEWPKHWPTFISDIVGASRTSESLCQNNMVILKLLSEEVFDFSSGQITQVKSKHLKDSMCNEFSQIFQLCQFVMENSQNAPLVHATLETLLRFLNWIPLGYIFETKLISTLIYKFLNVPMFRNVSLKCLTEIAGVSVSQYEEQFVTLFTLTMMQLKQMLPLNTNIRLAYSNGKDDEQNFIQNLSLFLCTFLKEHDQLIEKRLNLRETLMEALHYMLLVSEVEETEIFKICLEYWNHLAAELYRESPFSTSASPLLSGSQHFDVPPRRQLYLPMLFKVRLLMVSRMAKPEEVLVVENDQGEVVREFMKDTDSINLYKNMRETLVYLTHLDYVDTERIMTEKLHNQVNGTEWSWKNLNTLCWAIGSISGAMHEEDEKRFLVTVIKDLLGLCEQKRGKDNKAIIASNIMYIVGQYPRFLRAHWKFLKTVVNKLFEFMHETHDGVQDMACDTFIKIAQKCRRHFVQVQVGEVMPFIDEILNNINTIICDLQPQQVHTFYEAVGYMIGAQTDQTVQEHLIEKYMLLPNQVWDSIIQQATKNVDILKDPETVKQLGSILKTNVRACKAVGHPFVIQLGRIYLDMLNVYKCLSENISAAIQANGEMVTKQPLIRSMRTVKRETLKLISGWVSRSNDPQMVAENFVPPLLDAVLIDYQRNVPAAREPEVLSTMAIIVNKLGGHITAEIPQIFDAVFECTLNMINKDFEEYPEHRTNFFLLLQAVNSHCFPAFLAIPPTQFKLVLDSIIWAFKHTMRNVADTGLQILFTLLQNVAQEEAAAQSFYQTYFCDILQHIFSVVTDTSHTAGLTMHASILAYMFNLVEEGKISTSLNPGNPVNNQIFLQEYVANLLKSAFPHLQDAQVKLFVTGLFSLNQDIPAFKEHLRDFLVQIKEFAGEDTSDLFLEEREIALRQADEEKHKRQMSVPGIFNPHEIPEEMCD
METRIC: isoTOP-ABPP reactivity ratio, O14980_C528

See these solved cases before continuing.
| CHEMICAL STRING | RECORDED VALUE |
| --- | --- |
| C=CC(=O)N(Cc1cccnc1)c1cc(C(F)(F)F)cc(C(F)(F)F)c1 | 3.2 |
| CC(C)(C)c1cc(NC(=O)CCl)on1 | 1.2 |
| O=C(CCl)Nc1ccccc1C1CCCCCC1 | 0.8 |
| C=CC(=O)N1CCC(c2noc3ccc(F)cc23)CC1 | 0.9 |

[Q] Item `O=C(CCl)N(Cc1ccc(F)cc1)C12CC3CC(CC(C3)C1)C2` with XPO1 C528 (O14980) (Homo sapiens) - isoTOP-ABPP reactivity ratio, O14980_C528?
[A] 1.1
